The origin of these recorded values is patent US20230233569A1.

# target: KRAS G13C (Homo sapiens, UniProt P01116+P62937, G13C)
# Sequence (P01116 1-169 isoform P01116-2 G13C): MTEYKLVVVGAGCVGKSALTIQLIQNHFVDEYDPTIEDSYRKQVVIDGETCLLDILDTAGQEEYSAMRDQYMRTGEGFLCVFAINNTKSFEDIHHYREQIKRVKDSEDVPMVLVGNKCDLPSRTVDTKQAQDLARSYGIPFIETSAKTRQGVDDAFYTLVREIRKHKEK
# Sequence (P62937 whole entry): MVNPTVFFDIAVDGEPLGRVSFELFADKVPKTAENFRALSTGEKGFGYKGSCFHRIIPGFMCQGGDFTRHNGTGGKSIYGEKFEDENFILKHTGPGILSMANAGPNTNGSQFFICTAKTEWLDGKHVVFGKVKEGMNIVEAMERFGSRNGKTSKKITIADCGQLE
# protocol notes: Disruption of BRAF RBD interaction with Ras (FRET / MOA assay, with Cyclophilin A)
# Assay type: biochemical
# condition details: KRAS G13C; read-out: KRAS G13C FRET data IC50
pIC50: −log10 of the molar value.
observed property: pIC50

INSERT INTO measurements (molecule, target, result) VALUES
  ('CCn1c(-c2cccnc2[C@H](C)OC)c2c3cc(ccc31)-c1csc(n1)C[C@H](NC(=O)[C@H](COC1CN(C(=O)C#CC(C)(C)N(C)C)C1)OC)C(=O)N1CCC[C@H](N1)C(=O)OCC(C)(C)C2 (atropisomer, axis not shown) [Example A705]', 'KRAS G13C (Homo sapiens, UniProt P01116+P62937, G13C)', '5.00 to 6.00'),
  ('C=CC(=O)N1CC[C@H](C(=O)N(C)[C@H](C(=O)N[C@H]2Cc3cc(O)cc(c3)-c3cc(F)c4c(c3)c(c(-c3ccccc3CCOC)n4CC)CC(C)(C)COC(=O)[C@@H]3CCCN(N3)C2=O)C(C)C)C1 [Example A053]', 'KRAS G13C (Homo sapiens, UniProt P01116+P62937, G13C)', '< 5.00');

====

# target: KRAS G12D (Homo sapiens, UniProt P01116+P62937, G12D)
# Sequence (P01116 1-169 isoform P01116-2 G12D limits assumed): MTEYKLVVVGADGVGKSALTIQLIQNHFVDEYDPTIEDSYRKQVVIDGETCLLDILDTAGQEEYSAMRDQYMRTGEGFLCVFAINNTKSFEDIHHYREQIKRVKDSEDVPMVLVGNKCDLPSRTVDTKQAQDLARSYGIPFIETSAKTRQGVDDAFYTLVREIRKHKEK
# Sequence (P62937 whole entry): as the sequence (P62937 whole entry) above
# protocol notes: Ras-Raf disruption / FRET / MOA assay (BRAF RBD)
# Type: biochemical
# condition details: KRAS G12D FRET data IC50, Ras-Raf disruption, with Cyclophilin A
pIC50: −log10 of the molar value.
observed property: pIC50

INSERT INTO measurements (compound, observed_property, result) VALUES
  ('CCn1c(-c2cccnc2[C@H](C)OC)c2c3cc(ccc31)-c1cc(O)cc(c1)C[C@H](NC(=O)[C@H](C(C)C)N(C)C(=O)CN(C)C(=O)[C@@H]1N[C@H]1COC)C(=O)N1CCC[C@H](N1)C(=O)OCC(C)(C)C2 [Example 85]', 'pIC50', '6.00 to 7.00'),
  ('CCn1c(-c2cccnc2[C@H](C)OC)c2c3cc(ccc31)-c1cc(O)cc(c1)C[C@H](NC(=O)[C@H](C(C)C)N(C)C(=O)CN(C)C(=O)[C@@H]1CN1CCCOC(C)=O)C(=O)N1CCC[C@H](N1)C(=O)OCC(C)(C)C2 (stereo partly shown) [Example 267]', 'pIC50', '7.00 to 8.00'),
  ('CCn1c(-c2cccnc2[C@H](C)OC)c2c3cc(ccc31)-c1cc(O)cc(c1)C[C@H](NC(=O)[C@H](C1CCCC1)N(C)C(=O)CN(C)C(=O)[C@@H]1N[C@@H]1C1(C#N)CC1)C(=O)N1CCC[C@H](N1)C(=O)OCC(C)(C)C2 (single isomer, unassigned) [Example 308]', 'pIC50', '6.00 to 7.00'),
  ('CCn1c(-c2cccnc2[C@H](C)OC)c2c3cc(ccc31)-c1cc(O)cc(c1)C[C@H](NC(=O)[C@H](C(C)C)N(C)C(=O)CN(C)C(=O)[C@H]1CN1Cc1ccccc1CO)C(=O)N1CCC[C@H](N1)C(=O)OCC(C)(C)C2 (stereo partly shown) [Example 156]', 'pIC50', '6.00 to 7.00');
